System: tetA promoter (PtetA)-lacZ reporter in E. coli KM3
Type: cell-based
conditionLabel: Table 4; metsulfuron 20 μg/ml (20 ppm); 48 hrs at 30° C.
quantity: relative β-galactosidase activity, inducer Ms

molecule	experimentalValue
L1-31: library L1 hit, sulfonylurea-responsive TetR(B) variant (protein, Sulfonylurea responsive repressor L1-31) MGSRLDKSKVINSALELLNEVGIEGLTTRKLAQKLGVEQPTLYWHVKNKRALLDALAIEMLDRHATHFCPLEGESWQDFLRNNAKSMRCALLSHRDGAKVMLGTRATEKQYETVENRLAFLCQQGFSLENALYAVRAVHWFTLGCVLIDQEMQVAKEERETPTTDSMPPLLRQAYELYDHQGAEPAFLFGLELIICGLEKQLKCESGS	0.5
